meta.source: PubChem BioAssay (NCI)

Tested on: KM12 colon
Assay summary: NCI-60 one-dose screen, 48 h
Protocol conditions: 10 µM unless noted
About 83,000 compounds went through this panel and 20% of them were active in at least one assay; those are over-represented in the sample as a whole. Activity calls are given as the source filed them. How the source made its calls: active means growth percent below 10; inactive means the rest.
Outcomes: t (active), f (inactive)

INSERT INTO assay_data (compound, label_class) VALUES
  ('COC(=O)[C@H](Cc1ccccc1)NC(=O)c1csc([C@@H](C[C@H](C(C)C)N(C)C(=O)[C@@H](NC(=O)[C@H]2CCCN2C)C2CC2)OC(C)=O)n1', 'f'),
  ('COC1OC(CO)C(O)C(O)[CH]1[Hg][O]C(C)=O (centres undefined)', 'f'),
  ('COc1cc([C@@H]2c3cc4c(cc3[C@H](OC(C)=O)[C@H]3COC(=O)[C@H]23)OCO4)cc(OC)c1OC', 'f'),
  ('COC(=O)[C@H](Cc1ccccc1)NNC(=O)c1csc([C@@H](C[C@H](C(C)C)N(C)C(=O)[C@@H](NC(=O)[C@H]2CCCCN2C)C2CC2)OC(C)=O)n1', 't'),
  ('COc1ccc(/C=C\c2cc(OC)c(OC)c(OC)c2)c(NS(=O)(=O)c2ccc(Cl)cc2)c1O', 't'),
  ('COC(=O)[C@@H](C)C[C@H](Cc1ccccc1)NC(=O)c1nc([C@@H](C[C@H](C(C)C)N(C)C(=O)[C@@H](NC(=O)[C@H]2C[C@H](O)CCN2C)C(C)C)OC(C)=O)sc1C(C)C', 't'),
  ('COc1ccc2c(c1)c(C1(O)CC(CSC#N)OC1=O)cn2C(=O)c1ccc(Cl)cc1 (centres undefined)', 'f'),
  ('CCCC(=O)O[C@@H]1C[C@H]2C[C@@H](O[C@@H]3O[C@@H](C)[C@@H](O)[C@@H](O)[C@H]3OC)C[C@@H](C[C@@H](C)/C=C/C=C\C[C@@H]3O[C@@H](C[C@@H]3C)[C@@H](O)C[C@H]3C[C@@]1(O)C(=O)O3)O2', 'f'),
  ('COc1ccc(/C=C\c2cc(OC)c(OC)c(OC)c2)cc1NC(=O)/C=C/c1cc(OC)c(OC)c(OC)c1', 'f'),
  ('C[C@]12CC[C@H]3[C@@H](CC4SC(N)=NC45C/C(=N/NC(N)=O)CC[C@]35C)[C@@H]1CCC2=O (some centres undefined)', 'f'),
  ('CC(=O)C(c1c(O)c2ccccc2oc1=O)c1cc(=O)oc2c1ccc1ccccc12 (centres undefined)', 'f'),
  ('CC1CN1CCCCN1CC1C (centres undefined)', 'f'),
  ('C[C@@]12CC[C@@H](O)C[C@@H]1CC[C@H]1[C@H]2CC[C@@]2(C)[C@H](c3ccc(=O)oc3)CC[C@@]12O', 't'),
  ('COC(=O)[C@@H](C)C[C@H](Cc1ccccc1)NC(=O)c1csc([C@@H](C[C@H](C(C)C)N(C)C(=O)[C@@H](NC(=O)[C@H]2CCCCN2C)C2CC2)OC(C)=O)n1', 't'),
  ('O=[N+]([O-])CC(c1ccccc1Cl)c1c(-c2ccccc2)[nH]c2ccccc12 (centres undefined)', 'f'),
  ('CC(C)=CCC[C@H](C(=O)O)[C@@H]1CC[C@]2(C)C3=C(CC[C@@]12C)[C@@]1(C)CC[C@H](O)C(C)(C)[C@@H]1CC3', 'f'),
  ('CC(=O)O[C@@H]1CC[C@]2(C)[C@H]3CC[C@]4(C)C(=O)CC[C@H]4[C@@H]3C[C@@H]3SC(N)=N[C@@]32C1', 'f'),
  ('Cc1cnc(/C=C/C(=O)O)cc1-c1cc2c(cc1C)C(C)(C)CCC2(C)C', 'f'),
  ('NC1CC2CCCCC2CC1(O)c1ccccc1 (centres undefined)', 'f'),
  ('Nc1ccc(Cl)cc1', 'f'),
  ('COc1ccc(C2=N[C@@H](Cc3ccccc3)C(=O)Nc3ccsc32)cc1', 'f'),
  ('COc1ccc(O)c(CNC(=O)CN2CCCC2=O)c1', 'f'),
  ('COC(=O)[C@@H](C)C[C@H](Cc1ccccc1)NC(=O)c1nc([C@@H](C[C@H](C(C)C)N(C)C(=O)[C@@H](NC(=O)[C@H]2CCCCN2C)C(C)C)OC(C)=O)sc1C', 't'),
  ('Clc1cccc(N2COOC3(OOC2)C2CC4CC(C2)CC3C4)c1', 'f'),
  ('C1CCC([PH+](C2CCCCC2)C2CCCCC2[PH+](C2CCCCC2)C2CCCCC2)CC1.[Au].[CH-]1CCCCC1CC1CCCC[N-]1 (centres undefined)', 't'),
  ('COC(=O)C12CC(NC(=O)c3csc([C@@H](C[C@H](C(C)C)N(C)C(=O)[C@@H](NC(=O)[C@H]4CCCCN4C)C4CC4)OC(C)=O)n3)(C1)C2', 't'),
  ('CC1=C(CCCNS(C)(=O)=O)C2=C(C)C3(CC3)[C@@](C)(O)C(=O)C2=C1', 'f'),
  ('ClCCN(CCCl)c1ccc(/C=N/Nc2ncnc3nc[nH]c23)cc1', 'f'),
  ('COc1cc(/C=C/[N+](=O)[O-])cc(OC)c1', 't'),
  ('Nc1ccc2c(c1)Cc1cc(Br)ccc1-2', 'f'),
  ('O=C(CC1(O)C(=O)Nc2ccc(Br)cc21)c1ccc(C(=O)NCC2CCC3(CC2)OOC2(CCCCC2)OO3)cc1 (centres undefined)', 'f'),
  ('CC(=O)OC[C@]1(C)C=C2C(=O)[C@](C)(O)C3(CC3)C(C)=C2[C@H]1O', 'f'),
  ('N/C(=N/N=C/c1ccncc1)N[N+](=O)[O-]', 'f'),
  ('COc1ccc(/C=C\c2cc(OC)c(OC)c(OC)c2)cc1NC(=O)/C=C/c1ccc(OC)c(OC)c1', 'f');

----------
Below: a set of entries, each annotated with reported growth.
Test system: K-562 leukemia
Assay summary: NCI-60 one-dose screen, 48 h (100 = growth as untreated, 0 = no growth, -100 = all killed)
Protocol conditions: 10 µM unless noted
Method: Cells are grown in 96 well plates and exposed to the test compound for 48 hours. Compounds are tested at a single concentration, which is 10^-5 M for most compounds. The reported endpoint is percent growth (GI% or GIPRCNT), where numbers from 0 - 100% represent growth inhibition, and numbers from -100% - 0 represent cell death. For example, a value of 40 represents 60% growth inhibition. A value of 0 means no net growth occurred over the course of the experiment. […]
This is part of a sample that, as a whole, favours compounds with a hit. Of some 83,000 tested, about 20% had one in any assay. Active and inactive are the calls of the source. The calls were made as follows: active = growth percent below 10; inactive = the rest.
Recorded metric: growth

INSERT INTO assay_data (smiles_str, system_name, recorded_metric, result) VALUES
  ('COC(=O)[C@@]1(O)C[C@H]2O[C@]1(C)n1c3ccccc3c3c4c(c5c6ccccc6n2c5c31)C(=O)NC4', 'K-562 leukemia', 'growth', '0.0974% (active)'),
  ('COc1ccc(S(=O)(=O)Nc2c(/C=C\c3cc(OC)c(OC)c(OC)c3)ccc(OC)c2O)cc1OC', 'K-562 leukemia', 'growth', '17.2% (inactive)'),
  ('Fc1cccc(NCOOC2(OOCNc3cccc(F)c3)CCCCC2)c1', 'K-562 leukemia', 'growth', '41.3% (inactive)'),
  ('CC[C@]12C=CCN3CC[C@@]4(c5ccc(OC)cc5N(C)[C@H]4[C@@](O)(C(=O)OC)[C@@H]1OC(=O)CCCC[P+](c1ccccc1)(c1ccccc1)c1ccccc1)[C@@H]32', 'K-562 leukemia', 'growth', '21.7% (inactive)');

----------
Tested on: SK-OV-3 ovarian
Assay summary: NCI-60 one-dose screen, 48 h (100 = growth as untreated, 0 = no growth, -100 = all killed)
Protocol conditions: 10 µM unless noted
This is part of a sample that, as a whole, favours compounds with a hit. Of some 83,000 tested, about 20% had one in any assay.
Assign class by growth: not lower than 50% means condition met; lower than 50% means condition not met.

INSERT INTO assay_data (molecule, system_name, label_class) VALUES
  ('C[C@]12CC[C@H]3[C@@H](CC[C@]4(O)C[C@@H](O[C@@H]5O[C@H](CO)[C@@H](O[C@@H]6OC[C@@H](O)[C@H](O)[C@H]6O)[C@H](O)[C@H]5O)CC[C@]34C=O)[C@@]1(O)CC[C@@H]2C1=CC(=O)OC1', 'SK-OV-3 ovarian', 'condition not met'),
  ('O=[N+]([O-])/C=C\c1ccc(Cl)c(Cl)c1', 'SK-OV-3 ovarian', 'condition met'),
  ('NC(=O)CNc1ccc([As]=[As]c2ccc(NCC(N)=O)cc2)cc1 (stereo not drawn)', 'SK-OV-3 ovarian', 'condition met'),
  ('CN[C@]1(c2ccccc2Cl)CCCC[C@H]1NCCCN1CCN(C)CC1', 'SK-OV-3 ovarian', 'condition met'),
  ('Cc1cc(N(CCCl)CCCl)ccc1C=Nc1ccc(-c2csc(Cc3ccccc3)n2)cc1', 'SK-OV-3 ovarian', 'condition met'),
  ('Cc1cccc(N2CCN(C(C)C#N)CC2)c1 (stereo not drawn)', 'SK-OV-3 ovarian', 'condition met'),
  ('C/C(=C\c1ccn(-c2ccc(N)cc2)n1)[C@@H]1C[C@@H]2O[C@]2(C)CCC[C@H](C)[C@H](O)[C@@H](C)C(=O)C(C)(C)[C@@H](O)CC(=O)O1', 'SK-OV-3 ovarian', 'condition not met'),
  ('COc1ccc(/C=C\c2cc(OC)c(OC)c(OC)c2)c(NS(=O)(=O)c2ccc(C)cc2)c1O', 'SK-OV-3 ovarian', 'condition not met'),
  ('O=C(Nc1ccc([As]=[As]c2ccc(NC(=O)c3ccccc3)cc2)cc1)c1ccccc1 (stereo not drawn)', 'SK-OV-3 ovarian', 'condition not met'),
  ('Cn1cc(-c2csc(-c3cn(CCCCN4CCCCC4)c4ccc(F)cc34)n2)c2cccnc21', 'SK-OV-3 ovarian', 'condition met'),
  ('CCCCCCCCC(CO)NCCc1ccccc1 (stereo not drawn)', 'SK-OV-3 ovarian', 'condition met'),
  ('COC1OC(CO)C(O)C(O)[CH]1[Hg][O]C(C)=O (stereo not drawn)', 'SK-OV-3 ovarian', 'condition met'),
  ('CC12CCC3C(C=CC4=C(N)C(=O)CCC43C)C1CCC2=O (stereo not drawn)', 'SK-OV-3 ovarian', 'condition met'),
  ('C/C1=C/C(=O)O[C@@H]2C[C@@H](CC[C@H](C)/C=C\C=C\CC1)O[C@@](O)([C@@H]1CSC(=O)N1CO)C2', 'SK-OV-3 ovarian', 'condition not met'),
  ('COc1cc([C@@H]2c3cc4c(cc3[C@H](OC(C)=O)[C@H]3COC(=O)[C@H]23)OCO4)cc(OC)c1OC', 'SK-OV-3 ovarian', 'condition not met'),
  ('Nc1ccc(Cl)cc1', 'SK-OV-3 ovarian', 'condition met');
